- ASSAY_COMMENT: AUC (0 to t) in Sprague-Dawley rat at 10 mg/kg, po measured for 24 hrs
- Assay type: ADME, organism-based
- CONDITIONS: in vivo
OBSERVATION_TYPE: AUC(0-t) at 24 h

Field AUC(0-t) at 24 h (entry COc1cc2c(O[C@H]3CC[C@@H](N)CC3)ncnc2cc1OCc1cccc(Br)c1 ) reads 4270 ng·h/mL

====

- Test system: RAW264.7
- ASSAY_COMMENT: cells
- CONDITIONS: Mus musculus
- Description: Anti-inflammatory activity in mouse RAW264.7 cells assessed as inhibition of LPS-induced IL-6 level preincubated for 30 mins followed by LPS addition measured after 24 hrs by ELISA
Hi there, I'd appreciate the recorded pIC50 for every entry that follows.
Numbers only, as −log10 of the molar value.

Could you tell me pIC50 for each of these compounds? They are listed below.
1. COc1cc2c(O[C@H]3CC[C@@H](N)CC3)ncnc2cc1OCc1ccc(C)cc1
2. COc1cc2c(O[C@H]3CC[C@@H](N)CC3)ncnc2cc1OCc1ccc([N+](=O)[O-])cc1
3. COc1cc2c(O[C@H]3CC[C@@H](N)CC3)ncnc2cc1OCc1cccc(C)c1
4. COc1cc2c(O[C@H]3CC[C@@H](N)CC3)ncnc2cc1OCc1cccc(Br)c1
5. COc1cc2c(O[C@H]3CC[C@@H](NCCN4CCNCC4)CC3)ncnc2cc1OCc1ccccc1

Ans:
1: 5.80; 2: 6.19; 3: 6.22; 4: 6.32; 5: 5.45

====

- ASSAY_COMMENT: Tmax in Sprague-Dawley rat at 1 mg/kg, iv measured for 24 hrs
- Format: ADME, organism-based
- CONDITIONS: in vivo
OBSERVATION_TYPE: Tmax (min)
Numbers only, in min.

Value of measured Tmax for the entry COc1cc2c(O[C@H]3CC[C@@H](N)CC3)ncnc2cc1OCc1cccc(Br)c1 : 4.8

====

- ASSAY_COMMENT: Cmax in Sprague-Dawley rat at 10 mg/kg, po measured for 24 hrs
- Format: ADME, organism-based
- CONDITIONS: in vivo
OBSERVATION_TYPE: Cmax

Looking up COc1cc2c(O[C@H]3CC[C@@H](N)CC3)ncnc2cc1OCc1cccc(Br)c1 , I see its Cmax listed as 856 ng/mL

====

- Test system: THP-1
- ASSAY_COMMENT: cells
- CONDITIONS: Homo sapiens
- Description: Anti-inflammatory activity in human THP-1 cells assessed as inhibition of LPS-induced IL-6 level preincubated for 30 mins followed by LPS addition measured after 24 hrs by ELISA
OBSERVATION_TYPE: pIC50
Give bare numbers, as −log10 of the molar value.

Please fill in: pIC50 reported for COc1cc2c(O[C@H]3CC[C@@H](N)CC3)ncnc2cc1OCc1cccc(Br)c1 = 6.02

====

- Test system: RAW264.7
- ASSAY_COMMENT: cells
- CONDITIONS: Mus musculus
- Description: Anti-inflammatory activity in mouse RAW264.7 cells assessed as inhibition of LPS-induced TNF-alpha level preincubated for 30 mins followed by LPS addition measured after 24 hrs by ELISA
OBSERVATION_TYPE: pIC50
Answers are plain numbers, as −log10 of the molar value.

Looking up COc1cc2c(O[C@H]3CC[C@@H](N)CC3)ncnc2cc1OCc1cccc(Br)c1 , I see its pIC50 listed as 5.82

====

- Tested on: J774.A1
- ASSAY_COMMENT: cells
- CONDITIONS: Mus musculus
- Description: Anti-inflammatory activity in mouse J774.A1 cells assessed as inhibition of LPS-induced TNF-alpha level preincubated for 30 mins followed by LPS addition measured after 24 hrs by ELISA
OBSERVATION_TYPE: IC50 (nM)
One number for each entry, in nM.

Sure, the documented IC50 for COc1cc2c(O[C@H]3CC[C@@H](N)CC3)ncnc2cc1OCc1cccc(Br)c1 is 1330

Taken from ChEMBL document CHEMBL6109094.
